target: GST-Alk protein (mutant L1196M 1058-1620) (Homo sapiens (Human), UniProt Q9UM73, L1196M); experiment: HTRF kinase test with GST-Alk protein, mutant L1196M (ATP 200 microM, enzyme 1 nM); settings: GST-Alk mutant L1196M 1058-1620, ATP 200 microM
Sequence (Q9UM73 1058-1620 L1196M): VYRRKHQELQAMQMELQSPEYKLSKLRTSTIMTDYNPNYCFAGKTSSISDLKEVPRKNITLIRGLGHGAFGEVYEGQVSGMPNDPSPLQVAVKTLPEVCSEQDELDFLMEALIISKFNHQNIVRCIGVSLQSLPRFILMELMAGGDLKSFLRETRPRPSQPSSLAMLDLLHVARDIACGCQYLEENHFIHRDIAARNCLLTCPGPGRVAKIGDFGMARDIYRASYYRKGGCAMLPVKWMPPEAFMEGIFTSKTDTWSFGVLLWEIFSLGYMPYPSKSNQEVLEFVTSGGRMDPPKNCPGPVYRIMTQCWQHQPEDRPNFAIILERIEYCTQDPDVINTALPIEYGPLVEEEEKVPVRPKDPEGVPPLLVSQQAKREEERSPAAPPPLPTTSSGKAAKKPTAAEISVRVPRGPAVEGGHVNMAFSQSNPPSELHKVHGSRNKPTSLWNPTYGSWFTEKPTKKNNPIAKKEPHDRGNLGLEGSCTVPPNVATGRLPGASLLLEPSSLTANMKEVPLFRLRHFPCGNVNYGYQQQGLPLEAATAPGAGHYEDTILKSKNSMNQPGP
reported-metric: IC50 (nM)

• COc1nc(C)ccc1-c1c(CO)sc2cnc(Nc3cc(C)c(N4CCN(C)CC4)cc3OC(C)C)nc12 = 14

----------
target: GST-Alk protein (wild-type form 1058-1620) (Homo sapiens (Human), UniProt Q9UM73)
Sequence (Q9UM73 1058-1620): as the sequence (Q9UM73 1058-1620 L1196M) above, with M139L counted along it
pIC50: −log10 of the molar value.
reported-metric: pIC50

- COc1nc(C)ccc1-c1c(CO)sc2cnc(Nc3cc(C)c(N4CCN(C)CC4)cc3OC(C)C)nc12 [Compound I-191]: 7.92
